# System: OVCAR-3 ovarian
# ASSAY TEXT: NCI tumour cell line growth inhibition, 48 h
Each record here notes measured GI50.

Consider the reported GI50 for these compounds:
CC(C)OP(=O)(OC(C)C)C([CH2][Sn]([CH3])([CH3])[Cl])P(=O)(OC(C)C)OC(C)C = 20.2 µM
CN1C(=O)CC2(C)c3cc(O)ccc3N(C)C12 (stereo not given) = 16.1 µM
CCN(CC)CCOc1nc2c3ccc(Cl)cc3nn2c2ccccc12 = 2.86 µM
COc1cc(-c2cc(/C=C/C(=O)c3ccc(N)cc3)[nH]n2)cc(OC)c1OC = 1.57 µM

Turning to the following compound.
Measured GI50 of C[C@H](O)CNc1cc(-c2[nH]c3cccnc3c2-c2ccc(F)cc2)ccn1 : 22.2 µM

###

# Tested on: HL-60(TB) leukemia
# ASSAY TEXT: NCI tumour cell line growth inhibition, 48 h; in the data active = GI50 below about 0.43 µM; inactive = the rest
// classify into Y (active), N (inactive)

O=C(COc1cccc(/C=C2/Oc3ccccc3C2=O)c1)Nc1nccs1 = N
CN1CCN(c2ccc(N3Cc4ccccc4OC4=C3C(=O)c3c(O)ccc(O)c3C4=O)cn2)CC1 = Y
O=C(Nc1ccc(Cl)cc1)Nc1ccc(Oc2nncc3ccccc23)cc1 = N
CS(=O)(=O)Nc1ccc(Nc2c3ccccc3nc3cc(N)ccc23)cc1 = N
Cc1ccc(NCCN2CCCCC2)c2c(=O)c3ccccc3sc12 = N
Nc1cc(N)c2nc(-c3ccccc3)c(Sc3ccc(Cl)c(Cl)c3)nc2c1 = N
Oc1ccccc1N=Cc1c(O)ccc2ccccc12 = N
Clc1ccc(N2CCN(CCCN3CCN(c4cccc(Cl)c4)CC3)CC2)cc1 = N
Cn1c2c(c3ccc(-c4ccn[nH]4)cc3c1=O)C(=O)c1ccccc1-2 = N
CC(C)OP(=O)(OC(C)C)C([CH2][Sn]([CH3])([CH3])[Cl])P(=O)(OC(C)C)OC(C)C = N

[in] Field: outcome | Entry: O=C(O[C@H]1CN[C@H](C#Cc2cc3ncnc(Nc4ccc5c(cnn5Cc5ccccc5)c4)c3s2)C1)N1CCOCC1
[out] N

[in] Field: outcome | Entry: NCCCCCCn1c2c(c3ccccc3c1=O)C(=O)c1ccccc1-2
[out] Y

[in] Field: outcome | Entry: C[C@H](O)CNc1cc(-c2[nH]c3cccnc3c2-c2ccc(F)cc2)ccn1
[out] N

[in] Field: outcome | Entry: CN1C(=O)CC2(C)c3cc(O)ccc3N(C)C12 (centres undefined)
[out] N

###

# Test system: HOP-92 NSCLC
# ASSAY TEXT: NCI tumour cell line growth inhibition, 48 h
Where a SMILES comes first, the peptide text is derived from it. The star is where a group is joined. Boc = CC(C)(C)OC(=O)*
Response key: met means TGI >= 60 µM; not met means TGI < 60 µM.

Look over these answered cases.
NC(=O)NC(=O)c1cccc(NC(=O)CI)c1 = not met
O=c1n(N=S(=O)(c2ccccc2)c2ccccc2)c(=O)n2n1C1C=CC2CC1 = met
Cc1cc(C(=O)NC(C)(C)C)cc(C#Cc2ccc3c4c(oc3c2)C(C)(C)c2cc(NS(C)(=O)=O)ccc2C4=O)n1 = not met

[in] Is the recorded value of TGI equal to or greater than 60 µM for this compound? CCCCCC(/C=C/C1CCC(=O)C1)OCOCCOC (stereo not given)
[out] met

[in] Is the recorded value of TGI equal to or greater than 60 µM for this compound? CC(NC(=O)OC(C)(C)C)C(=O)NC(Cc1ccccc1)C(=O)NCC(=O)O (stereo not drawn) (Boc-Ala-Phe-Gly-OH; configuration not given here)
[out] met

[in] Is the recorded value of TGI equal to or greater than 60 µM for this compound? Cc1cnc(Cl)nc1C(C#N)c1nc2ccccc2s1 (stereo not given)
[out] not met

###

Each record here notes measured TGI.
# Test system: XF 498 CNS
# ASSAY TEXT: NCI tumour cell line growth inhibition, 48 h
# unit: µM | format: bare number

C=C(CN(C)C)C(=O)c1ccc(OC2OC(COC(C)=O)C(OC(C)=O)C(OC(C)=O)C2OC(C)=O)cc1 (stereo not given) = 9.77

Turning to the following compound.
Measured TGI of O=C(/C=C/c1c(O)ccc2ccccc12)c1ccccc1Cl : 62.2

###

# Test system: CAKI-1 renal
# ASSAY TEXT: NCI tumour cell line growth inhibition, 48 h
VALUE TYPE: TGI

CC1CCN(CCC(=O)CC(c2ccccc2)c2c(O)c3ccccc3oc2=O)CC1 (configuration not stated) = > 100 µM
CC(C)(OCc1ccccc1)c1ccccc1P(c1ccccc1)c1ccccc1 = > 100 µM

Measured TGI of Cn1c(=O)c2c3ccccc3c(C(=O)c3ccccc3)n2c2ccccc21 : > 100 µM

Measured TGI of OCC#Cc1ccccc1C#CCCCCCCC#Cc1ccccc1C#CCO : 32.8 µM

Measured TGI of Nc1cc(N)c2nc(-c3ccccc3)c(Sc3ccc(Cl)c(Cl)c3)nc2c1 : 41.1 µM

Measured TGI of CC(=O)CC(=O)Nc1c(C)[c]([Hg][O]C(C)=O)c(C)[c]([Hg][O]C(C)=O)[c]1[Hg][O]C(C)=O : 32.6 µM

Measured TGI of COc1ccc(NC(=S)N=Nc2c(O)[nH]c3ccccc23)cc1 : 98.3 µM

###

# Tested on: A549 NSCLC
# ASSAY TEXT: NCI tumour cell line growth inhibition, 48 h
VALUE TYPE: TGI

Consider the reported TGI for these compounds:
Oc1c(-c2ccccc2)nc2ccccn12 = > 100 µM
C[C@H](O)CNc1cc(-c2[nH]c3cccnc3c2-c2ccc(F)cc2)ccn1 = > 25 µM
CC(C)=CCC/C(C)=C\CC/C(C)=C/CO = > 100 µM
COc1ccc(-c2nc3ccccc3c(=O)[nH]2)c(OC)c1 = > 100 µM
Nc1ccc2c(c1)S(=O)(=O)c1cc(O)ccc1O2 = > 100 µM
CCCCN(C(=O)c1ccccc1)C1CCC(=O)c2[nH]c3ccccc3c21 (stereo not drawn) = > 100 µM
COc1ccc(NC(=S)N=Nc2c(O)[nH]c3ccccc23)cc1 = > 100 µM
O=C(Nc1ccccc1)c1cc(S(=O)(=O)Nc2nc3ncccc3[nH]2)c(SSc2cc(Cl)c(C(=O)Nc3ccccc3)cc2S(=O)(=O)Nc2nc3ncccc3[nH]2)cc1Cl = > 100 µM

Measured TGI of CC1=C(C)C(=O)C2=C(OCCO2)C1=O : 43.1 µM

Measured TGI of NCCCCCCn1c2c(c3ccccc3c1=O)C(=O)c1ccccc1-2 : 25.8 µM

Measured TGI of [Co+2].[O-]c1ccccc1C=NCc1ccccc1.[O-]c1ccccc1C=NCc1ccccc1 : > 100 µM

Measured TGI of CCCCCCCCCCCc1noc2c1C(=O)C(O)CC2 (stereo not drawn) : 55 µM

Measured TGI of CCOC(=O)c1nc2ccccc2nc1Nc1ccc(Cl)c(Cl)c1 : > 100 µM

###

# System: MDA-MB-231 breast
# ASSAY TEXT: NCI tumour cell line growth inhibition, 48 h
Each record here notes measured log10 TGI.
Form field - Quantity: TGI; Unit: µM; Scale: log10

Consider the reported log10 TGI for these compounds:
CN1CCN(c2ccc(N3Cc4ccccc4OC4=C3C(=O)c3c(O)ccc(O)c3C4=O)cn2)CC1 = -0.15
Cc1coc2c1[C@@H](O)[C@@]1(C)[C@H](CCC[C@@H]1C)C2 = 1.77
C=C1C[C@@H](O)[C@@H](Br)C(C)(C)[C@@]12C=CC(O)(CBr)CC2 (stereo partly drawn) = 1.97
CCC(=O)O[C@H]1CC[C@H]2[C@@H]3CCC4=CC(=O)C=C[C@]4(O)[C@H]3CC[C@]12C = 1.77
NCCCCCCn1c2c(c3ccccc3c1=O)C(=O)c1ccccc1-2 = 0.74
CC(C)=CCC/C(C)=C/CC/C(C)=C/CCN(C)CCO = 1.38
C/C=C(\C)C(=O)O[C@H]1C=CC(=O)O[C@H]1CC[C@H](O)[C@H](C)O = 1.45
COc1ccc2c(c1)CCC1C2CCC2(C)C3=CC(O)CCC3CC12 (stereo not drawn) = 1.54
CCOC(=O)c1ccc2[nH]c(O)c(C(=Nc3ccc(N(C)C(=O)CN4CCN(C)CC4)cc3)c3ccccc3)c2c1 = 0.19
O=C1c2ccccc2C(=O)c2c1ccc(C(Br)Br)c2Cl = 0.57

Turning to the following compound.
Sample CC(=O)N1N=C(c2cc(C)ccc2O)CC1c1cccc(Cl)c1 (stereo not drawn) , system: MDA-MB-231 breast. Its log10 TGI is 1.92

###

# Test system: M14 melanoma
# ASSAY TEXT: NCI tumour cell line growth inhibition, 48 h
Each record here notes measured TGI.

Consider the reported TGI for these molecules:
S=c1[nH]n2c(Cc3ccccc3)nnc2s1 = > 100 µM
O=S(=O)(O)c1ccc(N=Nc2ccc(N=Nc3c(O)ccc4ccccc34)c(S(=O)(=O)O)c2)cc1 = > 100 µM
O=C(Nc1ccccc1Cl)c1cc(S(=O)(=O)Nc2n[nH]c(=O)n2-c2ccccc2)c(S)cc1Cl = > 100 µM
CC1=c2c(oc3cc(O)c(Nc4c(C)cc(O)cc4O)c(C)c23)=CC(=O)C1=Nc1c(C)cc(O)cc1O = 85.3 µM

Turning to the following molecule.
Sample C=C(Nc1ccc(OC)cc1OC)C(=O)Cc1cccc[n+]1[O-] , system: M14 melanoma. Its TGI is > 100 µM
